Test system: HPPD polypeptides (wild-type SEQ ID NO:1 and mutants)
Experimental parameters: in the presence of mesotrione (MST), 60 μM inhibitor, high substrate concentration; total change in signal normalized to no inhibitor

[
  {
    "Molecule": "24 (protein, mutant HPPD polypeptide) MADLYENPMGLMGFEFIEFASPTPGTLEPIFEIMGFTKVATHRSKNVHLYRQGEINLILNNEPNSIASYFAAEHGPSVCGMAFRVKDSQKAYNRALELGAQPIHIDTGPMELNLPAIKGIGGAPLYLIDRFGEGSSIYDIDFVYLEGVERNPVGAGLKVIDHLTHNVYRGRMVYWANFYEKLFNFREARYFDIKGEYTGLTSKAMSAPDGMIRIPLNEESSKGAGQIEEFLMQFNGEGIQHVAFLTDDLVKTWDALKKIGMRFMTAPPDTYYEMLEGRLPDHGEPVDQLQARGILLDGSSVEGDKRLLLQIFSETLMGPVFFEFIQRKGDDGFGPHSFKVLFESVERDQVRRGVLTAD",
    "Residual turnover": "68%"
  },
  {
    "Molecule": "31 (protein, mutant HPPD polypeptide) MADLYENPMGLMGFEFIEFASPTPGTLEPIFEIMGFTKVATHRSKNVHLYRQGEINLILNNEPNSIASYFAAEHGPSVCGMAFRVKDSQKAYNRALELGAQPIHIDTGPMELNLPAIKGIGGAPLYLIDRFGEGSSIYDIDFVYLEGVERNPVGAGLKVIDHLTHNVYRGRMVYWANFYEKLFNFREARYFDIKGEYTGLTSKAMSAPDGMIRIPLNEESSKGAGQIEEFLMQFNGEGIQHVAFLTDDLVKTWDALKKIGMRFMTAPGDEYYEMLEGRLPDHGEPVDQLQARGILLDGSSVEGDKRLLLQIFSETLMGPVFFEFIQRKGDDGFGPHSFKVLFESVERDQVRRGVLTAD",
    "Residual turnover": "n.i."
  },
  {
    "Molecule": "14 (protein, mutant HPPD polypeptide) MADLYENPMGLMGFEFIEFASPTPGTLEPIFEIMGFTKVATHRSKNVHLYRQGEINLILNNEPNSIASYFAAEHGPSVCGMAFRVKDSQKAYNRALELGAQPIHIDTGPMELNLPAIKGIGGAPLYLIDRFGEGSSIYDIDFVYLEGVERNPVGAGLKVIDHLTHNVYRGRMVYWANFYEKLFNFREARYFDIKGEYTGLTSKAMSAPDGMIRIPLNEESSKGAGQIEEFLMQFNGEGIQHVAFLTDDLVKTWDALKKIGMRFMTAPPDTYYEMLEGRLPDHGEPVDQLQARGILLDGSSVEGDKRLLLQIFSETLMGPVFFEFIQRKGHDGFGPDSFKVLFESVERDQVRRGVLTAD",
    "Residual turnover": "89%"
  },
  {
    "Molecule": "19 (protein, mutant HPPD polypeptide) MADLYENPMGLMGFEFIEFASPTPGTLEPIFEIMGFTKVATHRSKNVHLYRQGEINLILNNEPNSIASYFAAEHGPSVCGMAFRVKDSQKAYNRALELGAQPIHIDTGPMELNLPAIKGIGGAPLYLIDRFGEGSSIYDIDFVYLEGVERNPVGAGLKVIDHLTHNVYRGRMVYWANFYEKLFNFREARYFDIKGEYTGLTSKAMSAPDGMIRIPLNEESSKGAGQIEEFLMQFNGEGIQHVAFLTDDLVKTWDALKKIGMRFRTAPGDEYYEMLEGRLPDHGEPVDQLQARGILLDGSSVEGDKRLLLQIFSETLMGPVFFEFIQRKGHDGFGPDSFKVLFESVERDQVRRGVLTAD",
    "Residual turnover": "78%"
  }
]

This collection of values is drawn from patent US10597674B2.
